# Test system: MEKK2 (MAP3K2) mutant PB1 domain binding to MEK5, human
# Protocol description: MEK5 binding signal on mutant MEKK2 PB1, primary screen, biochemical, multiplex bead flow cytometry, Alexa488-MEK5 (AID 1530)
# Details: at 10 µM, stronger effect = higher value
Among all 290,000 compounds or so, about 1,000 (0.34%) were called active. The list comes from a sample in which actives are over-represented; it also holds close analogues and randomly drawn compounds.
Metric: percent response (%)

# Compound, Quantitative readout
records = [
    ("O=c1c2c3c(sc2n(CCN2CCCC2)c(=O)n1Cc1ccccc1)CCCCC3", 1),
    ("O=C(Nc1ccc(Cl)cn1)c1ccc2c(c1)OCCO2", -5),
    ("CCOc1ccc(NC(=O)NNC(=O)c2ccc(Cl)cc2Cl)cc1", -5),
    ("Cc1c(NC(=O)c2cc(-c3ccc(Br)cc3)on2)c(=O)n(-c2ccccc2)n1C", 4),
    ("CCC1=Nc2cc(C(=O)NCCN3CCCC3)ccc2Sc2ccc(C)cc21", 15),
    ("Cc1ccc(C(=O)c2coc3ccc(O)c(CN(C)C)c23)cc1", 11),
    ("O=C(Nc1ccc(Cl)cn1)c1cnn2cccnc12", 26),
    ("COCCCNC(=S)N1CCN(c2nc(-c3cccc(OC)c3)cs2)CC1", -4),
    ("Cc1ccc(SCCSc2ncccn2)cc1", 2),
    ("OC(CNCCc1ccc(Cl)cc1Cl)COc1ccccc1 (configuration not stated)", 11),
    ("CC(=O)Nc1cccc(NC(=O)CSc2nccn2Cc2ccc(F)cc2)c1", -1),
    ("OCC1(CCOc2ccccc2)CCN(Cc2cn[nH]c2-c2ccccc2)CC1", -4),
    ("Cc1cccc(-c2nc3ccc(C(=O)NCCN4CCN(C)CC4)cc3nc2-c2cccc(C)c2)c1", 34),
    ("CCOc1ccc2nc(N(CCCN(C)C)C(=O)c3ccc(C(=O)c4ccccc4)cc3)sc2c1", 19),
    ("CN1C(=O)/C(=C/c2ccc(C(=O)NC3CCCC3)cc2)Oc2ccccc21", 2),
    ("CN(C)CCCN(C(=O)c1ccc(S(=O)(=O)N2CCCCCC2)cc1)c1nc2ccc(Br)cc2s1", 61),
    ("CCOC(=O)C1Nc2ccc(C(F)(F)F)cc2C2C=CCC12 (configuration not stated)", 0),
    ("NC(N)=N/N=C/c1ccc(OCc2ccc(Cl)cc2Cl)cc1", 52),
    ("CN(C)c1nc(Nc2ccc(Cl)c(Cl)c2)nc(N(C)C)n1", 0),
    ("CCCN1CCN(C(=O)CCCNC(=O)c2ccc(Cl)cc2)CC1", -2),
    ("COc1ccc(S(=O)(=O)/N=C2\\C=C(NS(=O)(=O)c3ccccc3)C(=O)c3ccccc32)cc1", -2),
    ("COc1cccc(C2CC(c3cccs3)=NN2C(=O)CSC2=NCCS2)c1OC (configuration not stated)", 5),
]
